Assay: qHTS of pediatric cancer cell lines to identify multiple opportunities for drug repurposing: Primary screen for U-2 OS cells (AID 1347096); further: nearly all actives have a fitted effect of over 50% in size
Settings: U-2 OS viability, CellTiter-Glo luminescence, 48 h; series mostly up to 46 µM
Results filed as inconclusive are left out. Active and inactive are the calls of the source. The call rests on the fitted dose curve; in most records, active means well fitted cell-killing curve with a large enough effect; inconclusive means small, poorly fitted or top-dose-only effect; inactive means flat fitted curve, though single readings scatter.
Hi! Could you answer with just one of these? active, inactive

Outcome logged for Nc1nc2c(ncn2COCCO)c(=O)[nH]1 in this assay:
inactive

Outcome logged for Cc1cnc(NC(=O)C2=C(O)c3ccccc3S(=O)(=O)N2C)s1 in this assay:
inactive

Outcome logged for O=C(O)[C@@H](c1ccc(OCc2ccc3ccccc3n2)cc1)C1CCCC1 in this assay:
inactive

Outcome logged for O=c1n(CCCN2CCN(c3cccc(Cl)c3)CC2)nc2ccccn12 in this assay:
inactive

Outcome logged for N#CC[C@H](C1CCCC1)n1cc(-c2ncnc3[nH]ccc23)cn1 in this assay:
inactive

Outcome logged for Cc1ccc(N(CC2=NCCN2)c2cccc(O)c2)cc1 in this assay:
inactive

Outcome logged for CCn1c(-c2nonc2N)nc2c(C#CC(C)(C)O)ncc(OC[C@H]3CCCNC3)c21 in this assay:
inactive

Outcome logged for COc1nc(-c2ccc3c(c2)OCO3)n(-c2ccc(NC(=O)CSc3ccccc3)cc2)n1 in this assay:
inactive

Outcome logged for COc1cc2c(cc1OC)CN(CCc1ccc(NC(=O)c3cccc4c(=O)c5cccc(OC)c5[nH]c34)cc1)CC2 in this assay:
inactive

Outcome logged for CC[C@@H](C)[C@H](NC(=O)[C@H](CC1CCCCC1)NC(=O)c1ccno1)C(=O)N1CCC2(CCc3ccccc32)CC1 in this assay:
inactive

Outcome logged for NC(=O)c1ccc(I)c([N+](=O)[O-])c1 in this assay:
inactive

Outcome logged for O=NN(CCCl)C(=O)NCCCl in this assay:
inactive

Outcome logged for NC(=O)c1cnccn1 in this assay:
inactive

Outcome logged for Cc1cc(C=c2sc3nc4ccccc4n3c2=O)c(C)n1-c1ccccc1 in this assay:
inactive

Outcome logged for O=C(C1CC1)N1CC[C@@H](Cn2c(-c3ccc(-c4ccc5occc5c4)cc3)nc3cnccc32)C1 in this assay:
inactive

Outcome logged for NC(=O)c1ccc(-c2nc(-c3ccc4c(c3)OCCO4)c(-c3ccccn3)[nH]2)cc1 in this assay:
inactive

Outcome logged for COc1cc(Oc2ccnc3cc(OC)c(OC)cc23)ccc1NC(=O)NC(C)c1nccs1 (stereo not given) in this assay:
inactive

Outcome logged for Cn1c(=O)c(F)c(Nc2ccc(I)cc2F)c2c(=O)n(C[C@@H](O)CO)cnc21 in this assay:
active

Outcome logged for CS(=O)(=O)c1ccc(C(=O)Nc2ccc(Cl)c(-c3ccccn3)c2)c(Cl)c1 in this assay:
inactive

Outcome logged for Cn1cc(-c2ccc3nnc(C(F)(F)c4ccc5ncccc5c4)n3n2)cn1 in this assay:
inactive

Outcome logged for Cc1[nH]c(=O)c(C#N)cc1-c1ccncc1 in this assay:
inactive

Outcome logged for Oc1ccc(C2CNCCc3c2cc(O)c(O)c3Cl)cc1 (stereo not given) in this assay:
inactive

Outcome logged for CCOc1ccn(-c2ccc(F)cc2)c(=O)c1C(=O)Nc1ccc(Oc2ccnc(N)c2Cl)c(F)c1 in this assay:
inactive

Outcome logged for Cc1cccc(-c2nn(C(=S)Nc3ccccc3)cc2-c2ccnc3ccccc23)n1 in this assay:
inactive

Outcome logged for CO[C@@H]1[C@H](N(C)C(=O)c2ccccc2)C[C@H]2O[C@]1(C)n1c3ccccc3c3c4c(c5c6ccccc6n2c5c31)C(=O)NC4 in this assay:
active

Outcome logged for O=C1CCCC2=C1C(c1[nH]ncc1Cl)N=C(Nc1nc3ccccc3o1)N2 (stereo not given) in this assay:
inactive

Outcome logged for CC1(C)Cc2c(-c3ccccc3)c(-c3ccc(Cl)cc3)c(CC(=O)O)n2C1 in this assay:
inactive

Outcome logged for COc1ccc(CC2=NN3C([C@@H](CCc4ccccc4)[C@@H](C)O)=NC(C)C3C(=O)N2)cc1OC (stereo not given in full) in this assay:
inactive

Outcome logged for C#Cc1cccc(Nc2ncnc3cc(OCCOC)c(OCCOC)cc23)c1 in this assay:
inactive

Outcome logged for O=C1[C@H](Cc2ccc(O)cc2)N2C(=O)CCN(C(=O)NCc3ccccc3)[C@H]2CN1Cc1cccc2ccccc12 in this assay:
inactive
